Each recorded value in this set is attributed to the supplement of paper PMC9112550.

System: Escherichia coli TOP10;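 note: peptides expressed intracellularly from a pBAD plasmid library in pooled LB shake-flask culture, induced with 0.3% L-arabinose, DNA abundance read by NGS, three biological replicates, DESeq2 with apeglm shrinkage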
test.description: shrunken log2 fold change of peptide-encoding DNA abundance (4.5 h post-induction vs induction); higher = less antimicrobial activity (less host growth inhibition)
condition.details: time post-induction: 4.5 h; library: site-saturation at positions 5, 18, 19, 20
Respond with rule met for shrunken log2 fold change values of -0.05 and above, rule not met for values below.

Below, 10 sequences whose answers are already recorded.
ordered.residues: RRIRERPPRLPRPRPRPQLKPRP
discrete.label: rule not met
//
ordered.residues: RRIRPRPPRLPRPRPRPQNRPRP
discrete.label: rule not met
//
ordered.residues: RRIRWRPPRLPRPRPRPFYFPRP
discrete.label: rule met
//
ordered.residues: RRIRQRPPRLPRPRPRPTYWPRP
discrete.label: rule not met
//
ordered.residues: RRIRMRPPRLPRPRPRPWLAPRP
discrete.label: rule met
//
ordered.residues: RRIRFRPPRLPRPRPRPRDPPRP
discrete.label: rule met
//
ordered.residues: RRIRIRPPRLPRPRPRPRIKPRP
discrete.label: rule not met
//
ordered.residues: RRIRPRPPRLPRPRPRPEGLPRP
discrete.label: rule met
//
ordered.residues: RRIRWRPPRLPRPRPRPGHCPRP
discrete.label: rule not met
//
ordered.residues: RRIRFRPPRLPRPRPRPLKHPRP
discrete.label: rule not met

Request: Form field: shrunken log2 fold change at least -0.05? Entry: RRIRIRPPRLPRPRPRPCKKPRP
Result: rule not met

Request: Form field: shrunken log2 fold change at least -0.05? Entry: RRIRPRPPRLPRPRPRPGMCPRP
Result: rule not met

Request: Form field: shrunken log2 fold change at least -0.05? Entry: RRIRNRPPRLPRPRPRPCFCPRP
Result: rule not met
